Origin of measurements: patent US20230120736A1

Listed below: DAR by MS values for each entry.
# assay summary: Conjugation of anti-CD98 mAbs with Bcl-xL inhibitor synthons (precipitation, DAR, recovery, aggregation)
# protocol conditions: conjugation with synthon CZ, Method E
No unit in the answer, please; the number alone is enough.

molecule | DAR by MS
huAb107: "heavy chain variable sequence of huAb107 is provided in SEQ ID NO: 114"; "light chain variable sequence ... in SEQ ID NO: 112" (antibody, V domains shown) VH: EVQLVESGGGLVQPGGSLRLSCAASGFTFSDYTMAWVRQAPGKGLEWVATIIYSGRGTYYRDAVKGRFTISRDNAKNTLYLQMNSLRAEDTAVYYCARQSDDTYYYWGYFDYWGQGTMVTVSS VL: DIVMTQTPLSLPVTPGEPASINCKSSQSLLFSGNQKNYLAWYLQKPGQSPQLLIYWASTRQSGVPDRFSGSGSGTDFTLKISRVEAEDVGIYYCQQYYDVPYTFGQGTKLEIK | 2.2

Now, please, on to the next molecule.
Briefly, DAR by MS measured for huAb105: "heavy chain variable sequence of huAb105 is provided in SEQ ID NO: 111"; "light chain variable sequence ... in SEQ ID NO: 112" (antibody, V domains shown) VH: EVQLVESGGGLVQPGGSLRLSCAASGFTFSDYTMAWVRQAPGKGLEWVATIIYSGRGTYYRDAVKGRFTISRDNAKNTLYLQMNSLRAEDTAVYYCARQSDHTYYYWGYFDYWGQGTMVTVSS VL: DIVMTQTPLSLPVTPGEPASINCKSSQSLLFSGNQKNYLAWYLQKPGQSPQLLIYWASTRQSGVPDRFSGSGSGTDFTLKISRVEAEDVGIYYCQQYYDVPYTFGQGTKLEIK : 1.2
